Below is a list of entries, each paired with its recorded superoxide response (% of plate) value.
Experiment: calorie-restriction mimetic ROS inhibitors, yeast – validation compound set, pilot screen (AID 2706);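 further: yeast exposed to compound for one week at 30 degrees C before staining; 100% = mean of all compound wells on the same plate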
Conditions: S. cerevisiae aging, superoxide DHE fluorescence; at 10 µM; stronger effect = lower value
metric: superoxide response (% of plate) (%)

{"compound": "Cn1c(SCC(=O)c2ccccc2)nnc1-c1ccncc1", "metric": "superoxide response (% of plate)", "recorded value": 105}
{"compound": "COc1ccc(/C=C2\\CC/C(=C\\c3ccc(OC)c(OC)c3)C2=O)cc1OC", "metric": "superoxide response (% of plate)", "recorded value": 99}
{"compound": "Cc1ccccc1C(=O)NNc1ncnc2c1cnn2C", "metric": "superoxide response (% of plate)", "recorded value": 104}
{"compound": "N/C(=N\\OC(=O)CCCOc1ccc(Cl)cc1Cl)c1ccccn1", "metric": "superoxide response (% of plate)", "recorded value": 106}
{"compound": "Cc1ccccc1C(=O)Nc1ccccc1C(=O)NCC(C)C", "metric": "superoxide response (% of plate)", "recorded value": 118}
{"compound": "O=C(O)Cc1ccc(-c2ccccc2)cc1", "metric": "superoxide response (% of plate)", "recorded value": 118}
{"compound": "CN(C)[C@@H]1C(=O)C(C(=O)NCN2CCCC2)=C(O)[C@@]2(O)C(=O)C3=C(O)c4c(O)cccc4[C@@](C)(O)C3CC12 (stereo partly specified)", "metric": "superoxide response (% of plate)", "recorded value": 107}
{"compound": "Cc1ccc2c(c1)c1c3n2CCCN(Cc2ccccc2)C3CCC1 (stereo unspecified)", "metric": "superoxide response (% of plate)", "recorded value": 81.8}
{"compound": "CCOC(=O)C1=C2c3ccc4ccccc4c3CC(C)(C)N2C(=O)C1=O", "metric": "superoxide response (% of plate)", "recorded value": 114}
{"compound": "CC1=NN(c2ccccc2)C(=O)C1", "metric": "superoxide response (% of plate)", "recorded value": 91}
{"compound": "O=C(NC1CC1)C1CCN(C2CCN(C(=O)Cc3ccc(F)cc3)CC2)CC1", "metric": "superoxide response (% of plate)", "recorded value": 106}
{"compound": "CC(NC(=O)c1ccc(N2CCNCC2)c([N+](=O)[O-])c1)C12CC3CC(CC(C3)C1)C2 (stereo unspecified)", "metric": "superoxide response (% of plate)", "recorded value": 101}
{"compound": "CC[N+]1(C)CC2CCC(C)(C1)C2(C)C (stereo unspecified)", "metric": "superoxide response (% of plate)", "recorded value": 103}
{"compound": "CC(C)=CCC/C(C)=C/CC/C(C)=C/CC/C(C)=C/CC1=C(C)C(=O)c2ccccc2C1=O", "metric": "superoxide response (% of plate)", "recorded value": 102}
{"compound": "CC1=CC(=O)c2ccccc2C1=O", "metric": "superoxide response (% of plate)", "recorded value": 108}
{"compound": "Nc1ccc(S(=O)(=O)NC(=O)c2ccccc2)cc1", "metric": "superoxide response (% of plate)", "recorded value": 110}
{"compound": "C[C@H]1O[C@@H](O[C@H]2[C@@H](O)C[C@H](O[C@H]3[C@@H](O)C[C@H](O[C@H]4CC[C@@]5(C)[C@H](CC[C@@H]6[C@@H]5C[C@@H](O)[C@]5(C)[C@@H](C7=CC(=O)OC7)CC[C@]65O)C4)O[C@@H]3C)O[C@@H]2C)C[C@H](O)[C@@H]1O", "metric": "superoxide response (% of plate)", "recorded value": 90.7}
{"compound": "Cc1ccc2ncnc(NCCCCCC(=O)O)c2c1", "metric": "superoxide response (% of plate)", "recorded value": 114}
{"compound": "CN(C)CCOC(c1ccccc1)c1ccccc1", "metric": "superoxide response (% of plate)", "recorded value": 96.7}
{"compound": "OC(CCCN1CCC(O)(c2ccc(Cl)cc2)CC1)c1ccc(F)cc1 (stereo unspecified)", "metric": "superoxide response (% of plate)", "recorded value": 96}
{"compound": "O=C(COc1ccc(F)cc1)OCCN1CCOCC1", "metric": "superoxide response (% of plate)", "recorded value": 89.6}
